Where do the numbers come from? From the NIST ThermoML archive (doi:10.1021/je900550v).

- Condition set: 318.9 K; 101.33 kPa; Liquid; Pulse-echo method
Reported endpoint: speed of sound (m/s)

INSERT INTO assay_data (compound, reported) VALUES
  ('CC(C)C(=O)[O-].C[NH2+]CCO [2-hydroxy-N-methylethanaminium isobutyrate]', 1552.7),
  ('CCC(=O)[O-].C[NH2+]CCO [2-hydroxy-N-methylethanaminium propionate]', 1628.7),
  ('CCCC(=O)[O-].C[NH2+]CCO [N-methyl-2-hydroxyethylammonium butanoate]', 1549.5),
  ('C[NH2+]CCO.O=C[O-] [2-hydroxy-N-methylethanaminium formate]', 1774.8),
  ('CCCCC(=O)[O-].C[NH2+]CCO [2-hydroxy-N-methylethanaminium pentanoate]', 1484.6);
